# System: HCT-15
# METHOD SUMMARY: Cytotoxicity against human HCT15 cells assessed as cell growth inhibition measured after 48 hrs by sulforhodamine B assay
# Format: functional, cell-based
# EXPERIMENTAL CONDITIONS: HCT-15, 48 h
# IC50 values compiled below

CC1=CC(O)(C[C@@H](C)[C@H]2CC[C@@]3(C)C4=CC[C@H]5C(C)(C)C(=O)CC[C@]5(C)[C@@H]4CC[C@]23C)OC1=O (stereo partly drawn); > 10 µM

Continue with the next molecule.
Recorded IC50 for `C/C(=C\[C@H](O)C[C@@H](C)[C@H]1CC[C@@]2(C)C3=CC[C@H]4C(C)(C)C(=O)CC[C@]4(C)[C@@H]3CC[C@]12C)C(=O)O` with HCT-15, please? > 10 µM

###

# METHOD SUMMARY: Cytotoxicity against mouse BV2 cells assessed as cell viability at 20 uM measured after 24 hrs by MTT assay relative to control
# Type: cell-based, BV-2
# EXPERIMENTAL CONDITIONS: read-out: Activity
Each entry below lists one item and its recorded viability at 24 h, 20 µM value.
All answers are understood in %, so give the number only.

C=C[C@@]1(C)C=C2CC[C@@H]3[C@](C)(CCC[C@@]3(C)C(=O)O)[C@H]2CC1 [PIMARIC ACID]; 117
C=C[C@@]1(C)O[C@]2(C)CC[C@H]3C(C)(C)CCC[C@]3(C)[C@H]2C[C@H]1O; 112

Item `C=C(C)[C@@H]1CC=C2[C@@H](CC=C3[C@@]2(C)CC[C@@]3(C)[C@H](C)C[C@@H]2C[C@@H](C)C(=O)O2)[C@@]1(C)CCC(=O)OC` has what recorded viability at 24 h, 20 µM? 86.8

Query (compound): `C=C(C)[C@@H]1CC=C2[C@@H](CC[C@]3(C)[C@@H]([C@H](C)C[C@@H]4C[C@@H](C)C(=O)O4)CC[C@@]23C)[C@@]1(C)CCC(=O)OC` ; field requested: viability at 24 h, 20 µM 123

###

Reported pIC50 values for a set of molecules
# Test system: HCT-15
# METHOD SUMMARY: Cytotoxicity against human HCT15 cells assessed as cell growth inhibition measured after 48 hrs by sulforhodamine B assay
# Assay type: functional, cell-based
# EXPERIMENTAL CONDITIONS: HCT-15, 48 h
pIC50: −log10 of the molar value.

Before answering, review these 5 worked examples.
C/C(=C\C(=O)C[C@@H](C)[C@@H]1CC=C2C3=CC[C@H]4C(C)(C)[C@H](O)CC[C@]4(C)[C@@H]3CC[C@]21C)C(=O)O; < 5.00
C=C(C)[C@@H]1CC=C2[C@@H](CC=C3[C@@]2(C)CC[C@@]3(C)[C@H](C)C[C@@H]2C[C@@H](C)C(=O)O2)[C@@]1(C)CCC(=O)OC; 5.64
C/C(=C\C(=O)C[C@@H](C)[C@H]1CC[C@@]2(C)C3=CC[C@H]4C(C)(C)C(=O)CC[C@]4(C)[C@@H]3CC[C@]12C)C(=O)O; < 5.00
C[C@@H]1C[C@]2(C[C@@H](C)[C@]3(CC[C@@]4(C)[C@@H]5CC[C@H]6C(C)(C)[C@H](O)CC[C@@]67C[C@@]57CC[C@@]43C)O2)OC1=O; < 5.00
CC1=CC(O)(C[C@@H](C)[C@]2(C)CC=C3C4=CC[C@H]5C(C)(C)[C@H](O)CC[C@]5(C)[C@@H]4CC[C@]32C)OC1=O (stereo partly specified); < 5.00

Now for a further molecule.
Request the reported pIC50 associated with `C=C(C)[C@@H]1CC=C2[C@@H](CC[C@]3(C)[C@@H]([C@H](C)C[C@@H]4C[C@@H](C)C(=O)O4)CC[C@@]23C)[C@@]1(C)CCC(=O)OC` 5.09

Values compiled from ChEMBL document CHEMBL4145672.
